test system: PC-3; assay: Antitumor activity against human PC3 cells xenografted in sc dosed rat assessed as tumor regression dose; format: functional
Reported Activity is given for each of the following molecules.

molecule: COc1ccc2c(c1C)NC(=O)C2(c1ccc(O)cc1)c1ccc(F)cc1 (racemic)
measurement-label: Activity
recorded-result: <10 mg/kg

molecule: O=C1Nc2c(ccc(F)c2F)C1(c1ccc(O)cc1)c1ccc(F)cc1 (racemic)
measurement-label: Activity
recorded-result: <2.5 mg/kg

molecule: O=C1Nc2c(ccc(F)c2F)C1(c1ccc(O)cc1)C1CCCCC1 (racemic)
measurement-label: Activity
recorded-result: <10 mg/kg

molecule: COc1ccc2c(c1C)NC(=O)C2(c1ccc(O)cc1)C1CCCCCC1 (racemic)
measurement-label: Activity
recorded-result: 10 mg/kg

Query molecule follows.
// query Find the recorded Activity belonging to O=C1Nc2c(C(F)(F)F)cccc2C1(c1ccc(O)cc1)C1CCCCCC1 (racemic) and report it.
// result >20 mg/kg

---

system: PC-3; experiment: Cytotoxicity against human PC3 cells after 72 hrs by WST-1 assay; type: functional, cell-based; settings: Homo sapiens, PC-3, 72 h
# pIC50 per entry
# log scale: pIC50 equals minus log10 of the concentration in mol/L

Worked examples, 2 molecules total:
molecule: COc1ccc2c(c1C)NC(=O)C2(c1ccc(O)cc1)C1CCCCCC1 (racemic)
pIC50: 7.92
--
molecule: O=C1Nc2c(ccc(F)c2F)C1(c1ccc(O)cc1)C1CCCCCC1 (racemic)
pIC50: 7.92

// query # pIC50 lookup, item O=C1Nc2c(ccc(F)c2F)C1(c1ccccc1)c1ccc(O)cc1 (racemic)
// result 8.05

---

assay: AUC in mouse at 5 mg/kg, iv; type: ADME, organism-based; design: dose 5 mg/kg, route intravenous; conditions: plasma
This section presents molecules with their documented AUC values.
Express the result in ng·h/mL but write the number alone.

These solved cases illustrate the format of a correct answer.
molecule: O=C1Nc2c(ccc(F)c2F)C1(c1ccc(O)cc1)C1CCCC1 (racemic)
unit-spec: ng·h/mL
AUC: 1850

molecule: O=C1Nc2c(ccc(F)c2F)C1(c1ccc(O)cc1)C1CCCCC1 (racemic)
unit-spec: ng·h/mL
AUC: 3550

// query So what's the measured AUC for this one? "O=C1Nc2c(ccc(F)c2F)C1(c1ccc(O)cc1)c1ccc(O)cc1"
// result 6770

// query Given the molecule O=C1Nc2c(ccc(F)c2F)C1(c1ccc(O)cc1)c1ccc(F)cc1 (racemic) , what is its reported AUC?
// result 1910

// query I am curious: what AUC value has been reported for O=C1Nc2c(ccc(F)c2F)C1(c1ccc(O)cc1)C1CCCCCC1 (racemic) ?
// result 694

// query Recorded AUC of O=C1Nc2c(ccc(F)c2F)C1(c1ccc(O)cc1)c1cccs1 (racemic) , please.
// result 395

---

assay: Toxicity in iv dosed rat assessed as maximum tolerated dose; conditions: in vivo
// classify: if (MTD < 10 mg/kg) 1 else 0

compound: O=C1Nc2c(C(F)(F)F)cccc2C1(c1ccc(O)cc1)C1CCCCCC1 (racemic)
discrete-label: 0

// query Please determine if "O=C1Nc2c(ccc(F)c2F)C1(c1ccc(O)cc1)c1ccc(O)cc1" is below 10 mg/kg in terms of MTD.
// result 1

// query MTD strictly < 10 mg/kg for this compound? COc1ccc2c(c1C)NC(=O)C2(c1ccc(O)cc1)C1CCCCCC1 (racemic)
// result 0

---

assay: Half life in rat at 10 mg/kg, iv; format: ADME, organism-based; design: dose 10 mg/kg, route intravenous; conditions: in vivo
measurement-label: half-life (min)
Could you give me the number in min? Just the number is fine.

compound: COc1ccc2c(c1C)NC(=O)C2(c1ccc(O)cc1)C1CCCCCC1 (racemic)
unit-spec: min
recorded-result: 90

// query Give its half-life value. Item: COc1ccc2c(c1C)NC(=O)C2(c1ccc(O)cc1)c1ccc(F)cc1 (racemic)
// result 90

---

assay: AUC in rat at 10 mg/kg, iv; assay type: ADME, organism-based; parameters: dose 10 mg/kg, route intravenous; settings: plasma
measurement-label: AUC (ng·h/mL)
Value expressed in ng·h/mL; do not type the unit.

compound: COc1ccc2c(c1C)NC(=O)C2(c1ccc(O)cc1)c1ccc(F)cc1 (racemic)
AUC (ng·h/mL): 3950

// query I'd like to know its AUC. The compound in question is COc1ccc2c(c1C)NC(=O)C2(c1ccc(O)cc1)C1CCCCCC1 (racemic)
// result 5760

---

tested on: MDA-MB-468; assay: Cytotoxicity against human MDA-MB-468 cells; assay type: functional, cell-based
measurement-label: pIC50
Scale for pIC50: -log10 of concentration given in mol/L; no unit attached.

// query What does the record list as pIC50 for "O=C1Nc2c(ccc(F)c2F)C1(c1ccc(O)cc1)c1ccc(O)cc1" ?
// result 7.70

---

system: PC-3; assay: Cytotoxicity against human PC3 cells after 72 hrs by WST-1 assay; type: functional, cell-based; conditions: Homo sapiens, PC-3, 72 h
measurement-label: IC50 (nM)
Express your answer in nM, writing the number without its unit.

Consider the following illustrative entries.
compound: O=C1Nc2c(C(F)(F)F)cccc2C1(c1ccc(O)cc1)C1CCCCCC1 (racemic)
unit-spec: nM
IC50: 91
--
compound: Cc1ccc2c(c1Cl)NC(=O)C2(c1ccc(O)cc1)C1CCCCCC1 (racemic)
unit-spec: nM
IC50: 17
--
compound: CCCCCC1(c2ccc(O)cc2)C(=O)Nc2c1ccc(F)c2F (racemic)
unit-spec: nM
IC50: 1.1
--
compound: CCOc1ccc(C2(c3ccc(O)cc3)C(=O)Nc3c2ccc(F)c3F)cc1 (racemic)
unit-spec: nM
IC50: 24
--
compound: COc1ccc2c(c1C)NC(=O)C2(c1ccc(O)cc1)C1CCCC1 (racemic)
unit-spec: nM
IC50: 111

// query Which IC50 is reported with PC-3 for this entry: "COc1ccc2c(c1C)NC(=O)[C@]2(c1ccc(O)cc1)C1CCCCCC1" ?
// result 2

// query # returns recorded IC50 (system: PC-3) for Cc1ccc(C2(c3ccc(O)cc3)C(=O)Nc3c2ccc(F)c3F)cc1 (racemic)
// result 0.8

// query // lookup IC50 | system=PC-3 | key= O=C1Nc2c(ccc(F)c2F)C1(c1ccncc1)c1ccc(O)cc1 (racemic)
// result 110

---

experiment: Half life in mouse at 5 mg/kg, iv; type: ADME, organism-based; design: dose 5 mg/kg, route intravenous; conditions: in vivo
Hi! Just check whether half-life is below 1 h. Below gives 1.0, equal or above gives 0.0.

compound: O=C1Nc2c(ccc(F)c2F)C1(c1ccc(O)cc1)c1ccc(O)cc1
discrete-label: 0.0

compound: O=C1Nc2c(ccc(F)c2F)C1(c1ccc(O)cc1)C1CCCCCC1 (racemic)
discrete-label: 0.0

compound: O=C1Nc2c(ccc(F)c2F)C1(c1ccc(O)cc1)c1ccc(F)cc1 (racemic)
discrete-label: 0.0

compound: O=C1Nc2c(ccc(F)c2F)C1(c1ccc(O)cc1)c1cccs1 (racemic)
discrete-label: 1.0

compound: O=C1Nc2c(ccc(F)c2F)C1(c1ccc(O)cc1)C1CCCC1 (racemic)
discrete-label: 0.0

// query A record lists O=C1Nc2c(ccc(F)c2F)C1(c1ccc(O)cc1)C1CCCCC1 (racemic) . Is its half-life below 1 h?
// result 0.0

---

# reported AUC; entries follow
assay: AUC in rat at 2.5 mg/kg, iv; format: ADME, organism-based; design: dose 2.5 mg/kg, route intravenous; conditions: plasma
// units = ng·h/mL; emit number, no label

molecule: O=C1Nc2c(ccc(F)c2F)C1(c1ccc(O)cc1)c1ccc(F)cc1 (racemic)
unit-spec: ng·h/mL
recorded-result: 2530
//
molecule: O=C1Nc2c(ccc(F)c2F)C1(c1ccc(O)cc1)c1cccs1 (racemic)
unit-spec: ng·h/mL
recorded-result: 2630

// query # input molecule: O=C1Nc2c(ccc(F)c2F)C1(c1ccc(O)cc1)C1CCCC1 (racemic) ; wanted: its AUC
// result 2400

---

experiment: Half life in rat at 2.5 mg/kg, iv; format: ADME, organism-based; design: dose 2.5 mg/kg, route intravenous; details: in vivo
measurement-label: half-life (min)
The reply should be a number in min, with the unit left off.

These solved cases illustrate the format of a correct answer.
compound: O=C1Nc2c(ccc(F)c2F)C1(c1ccc(O)cc1)c1cccs1 (racemic)
half-life [min]: 42
--
compound: O=C1Nc2c(ccc(F)c2F)C1(c1ccc(O)cc1)C1CCCC1 (racemic)
half-life [min]: 66

// query Item O=C1Nc2c(ccc(F)c2F)C1(c1ccc(O)cc1)c1ccc(F)cc1 (racemic) has what recorded half-life?
// result 48

---

List of MTD values.
assay: Toxicity in iv dosed rat assessed as maximum tolerated dose; conditions: in vivo
Provide only the numeric value, understood in mg/kg.

compound: O=C1Nc2c(ccc(F)c2F)C1(c1ccc(O)cc1)C1CCCCC1 (racemic)
unit-spec: mg/kg
MTD: 10
//
compound: O=C1Nc2c(ccc(F)c2F)C1(c1ccc(O)cc1)c1ccc(F)cc1 (racemic)
unit-spec: mg/kg
MTD: 2.5

// query Look at this compound and give its reported MTD. COc1ccc2c(c1C)NC(=O)C2(c1ccc(O)cc1)c1ccc(F)cc1 (racemic)
// result 15
